Values from PubChem BioAssay (Tox21)

TARGET OF ASSAY: Beta-2 adrenergic receptor (Homo sapiens) (UniProt P07550)
Sequence (P07550 whole entry, looked up): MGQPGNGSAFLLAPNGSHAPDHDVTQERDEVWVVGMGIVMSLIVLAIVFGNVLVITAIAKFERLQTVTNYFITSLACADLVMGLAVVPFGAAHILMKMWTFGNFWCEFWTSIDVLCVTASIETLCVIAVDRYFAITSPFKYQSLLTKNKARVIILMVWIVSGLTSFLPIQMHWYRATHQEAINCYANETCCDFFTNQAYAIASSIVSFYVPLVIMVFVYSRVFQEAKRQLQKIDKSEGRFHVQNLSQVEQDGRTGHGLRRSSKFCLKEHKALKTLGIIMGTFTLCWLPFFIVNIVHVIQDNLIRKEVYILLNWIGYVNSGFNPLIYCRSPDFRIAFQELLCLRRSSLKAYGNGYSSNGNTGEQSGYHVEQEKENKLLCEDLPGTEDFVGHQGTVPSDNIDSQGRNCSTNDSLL
PROTOCOL DETAILS: Adrenergic beta2 receptor (ADRB2) small molecule agonists, cell-based qHTS assay (AID 1963593)
CONDITION SUMMARY: CHO-ADRB2 cells, cAMP HTRF, 30 min; series mostly up to 92.4 µM
Records with an inconclusive call do not appear. Active and inactive are the calls of the source. The call rests on the fitted dose curve.
Classes used: Yes (active), No (inactive)

COMPOUND | CLASS ASSIGNMENT
N=C(N)[Se] | No
CS/C(C)=N/OC(=O)N(C)SN(C)C(=O)O/N=C(\C)SC | No
CC[C@]1(O)CC[C@H]2[C@@H]3CCC4=CCCC[C@@H]4[C@H]3CC[C@@]21C | No
CCC1(c2ccccc2)C(=O)N=C(O)NC1=O (configuration not stated) | No
CCOP(=S)(OCC)SCSc1ccc(Cl)cc1 | No
N#Cc1cc(I)c(O)c(I)c1 | No
CC(C)=CCOc1c2occc2cc2ccc(=O)oc12 | No
CC(Cc1ccccc1)NCCCCl (configuration not stated) | No
CC(Cl)(Cl)[N+](=O)[O-] | No
CC(=O)[O-].CC(=O)[O-].O.O.[Cd+2] | No
Cc1cc(C(F)(C(F)(F)F)C(F)(F)F)ccc1NC(=O)c1cccc(I)c1C(=O)NC(C)(C)CS(C)(=O)=O | No
Nc1ccc([N+](=O)[O-])cc1Cl | No
Clc1ccc(C(OCCN2CCCCC2)c2ccccc2)cc1 (configuration not stated) | No
c1ccc2cc3c(cc2c1)-c1cccc2cccc-3c12 | No
CC(C)NCC(O)c1ccccc1Cl (configuration not stated) | Yes
CC1(c2ccc(Oc3ccccc3)cc2)OC(=O)N(Nc2ccccc2)C1=O (configuration not stated) | No
CCC[N+](CCC)(CCC)CCC | No
CCC(Cl)CCl (configuration not stated) | No
CCCCC(=O)Cl | No
Nc1cc2c3c(c1)C(c1ccccc1)=N[C@@H](NC(=O)c1cccnc1)C(=O)N3CC2 | No
CC(C)[C@H](C(=O)O[C@H](C#N)c1cccc(Oc2ccccc2)c1)c1ccc(Cl)cc1 | No
Clc1ccc(Oc2ccccc2)cc1 | No
CC(=O)C(Cl)C(=O)N(C)C (configuration not stated) | No
CCC(=O)C(CCN(C)C)(c1ccccc1)c1ccccc1 | No
C1CCC(C2CCCCC2)CC1 | No
CCN[C@@H](C)Cc1ccccc1 | No
CC1(C)[C@H](C=C(Cl)Cl)[C@@H]1C(=O)O[C@@H](C#N)c1cccc(Oc2ccccc2)c1 | No

* * *

TARGET OF ASSAY: Gonadotropin-releasing hormone receptor (Homo sapiens) (UniProt P30968)
Sequence (P30968 whole entry, looked up): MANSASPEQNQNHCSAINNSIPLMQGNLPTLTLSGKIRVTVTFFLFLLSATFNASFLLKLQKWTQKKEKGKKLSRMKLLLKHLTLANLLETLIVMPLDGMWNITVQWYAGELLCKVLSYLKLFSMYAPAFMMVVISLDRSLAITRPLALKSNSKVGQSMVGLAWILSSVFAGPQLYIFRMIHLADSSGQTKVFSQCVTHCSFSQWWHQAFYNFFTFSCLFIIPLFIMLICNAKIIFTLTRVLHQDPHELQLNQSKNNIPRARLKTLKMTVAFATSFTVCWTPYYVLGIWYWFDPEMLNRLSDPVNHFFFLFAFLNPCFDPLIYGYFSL
PROTOCOL DETAILS: Human gonadotropin-releasing hormone receptor (GnRHR) small molecule agonists, calcium flux assay in GnRHR-HEK293 cells (AID 1920063); further: nearly all actives have a fitted effect of over 35% in size; further: potency means the concentration at half of the fitted maximal effect
CONDITION SUMMARY: calcium flux fluorescence, agonist mode; series mostly up to 57.6 µM
The source made the active and inactive calls. The call rests on the fitted dose curve.
REPORTED PROPERTY: Potency

MOLECULE | TARGET OF ASSAY | REPORTED PROPERTY | RESULT
ClCc1ccccc1Cl | Gonadotropin-releasing hormone receptor (Homo sapiens) (UniProt P30968) | Potency | inactive
CC(C)NCC(O)c1ccc(N)c(C#N)c1 (stereo not drawn) | Gonadotropin-releasing hormone receptor (Homo sapiens) (UniProt P30968) | Potency | inactive
CNC(=O)Oc1cc(C)c(N(C)C)c(C)c1 | Gonadotropin-releasing hormone receptor (Homo sapiens) (UniProt P30968) | Potency | inactive
CCCN(CCC)CCc1c[nH]c2ccccc12 | Gonadotropin-releasing hormone receptor (Homo sapiens) (UniProt P30968) | Potency | inactive
N#CC(C#N)=Cc1ccc(O)c(O)c1 | Gonadotropin-releasing hormone receptor (Homo sapiens) (UniProt P30968) | Potency | inactive
Brc1ccccc1 | Gonadotropin-releasing hormone receptor (Homo sapiens) (UniProt P30968) | Potency | inactive
[F][Sn]([c]1ccccc1)([c]1ccccc1)[c]1ccccc1 | Gonadotropin-releasing hormone receptor (Homo sapiens) (UniProt P30968) | Potency | 34.7 µM (active)
Cc1ccc(N(SC(F)(Cl)Cl)S(=O)(=O)N(C)C)cc1 | Gonadotropin-releasing hormone receptor (Homo sapiens) (UniProt P30968) | Potency | 34.7 µM (active)
CO/C=C(/C(=O)OC)c1ccccc1Oc1cc(Oc2ccccc2C#N)ncn1 | Gonadotropin-releasing hormone receptor (Homo sapiens) (UniProt P30968) | Potency | inactive
Cc1c([N+](=O)[O-])cc2c(c1[N+](=O)[O-])C(C)(C)CC2(C)C | Gonadotropin-releasing hormone receptor (Homo sapiens) (UniProt P30968) | Potency | inactive
FC(F)OC(F)(F)C(F)Cl (stereo not drawn) | Gonadotropin-releasing hormone receptor (Homo sapiens) (UniProt P30968) | Potency | inactive
O=C(CCl)NCO | Gonadotropin-releasing hormone receptor (Homo sapiens) (UniProt P30968) | Potency | inactive
CCN(CCO)CCn1c(Cc2ccccc2)nc2c1c(=O)n(C)c(=O)n2C | Gonadotropin-releasing hormone receptor (Homo sapiens) (UniProt P30968) | Potency | inactive

* * *

TARGET OF ASSAY: Beta-2 adrenergic receptor (Homo sapiens) (UniProt P07550)
PROTOCOL DETAILS: Adrenergic beta2 receptor (ADRB2) small molecule agonists, cell-based qHTS assay (AID 1963593)
CONDITION SUMMARY: CHO-ADRB2 cells, cAMP HTRF, 30 min; series mostly up to 92.4 µM
Records with an inconclusive call do not appear. Active and inactive are the calls of the source. Calls follow the shape of the full dose curve.
Labels: yes (1) = active, no (0) = inactive

COMPOUND | TARGET OF ASSAY | CLASS ASSIGNMENT
COP(=S)(OC)Oc1cc(Cl)c(I)cc1Cl | Beta-2 adrenergic receptor (Homo sapiens) (UniProt P07550) | no (0)
CC(Oc1cccc(Cl)c1)C(=O)O (centres undefined) | Beta-2 adrenergic receptor (Homo sapiens) (UniProt P07550) | no (0)
CO/C=C(/C(=O)OC)c1ccccc1COc1cccc(C(F)(F)F)n1 | Beta-2 adrenergic receptor (Homo sapiens) (UniProt P07550) | no (0)
Nc1ccc2c(c1)Cc1ccccc1-2 | Beta-2 adrenergic receptor (Homo sapiens) (UniProt P07550) | no (0)
CNC(=O)Oc1ccccc1C(C)C | Beta-2 adrenergic receptor (Homo sapiens) (UniProt P07550) | no (0)
CC1N=C(N)OC1c1ccccc1 (centres undefined) | Beta-2 adrenergic receptor (Homo sapiens) (UniProt P07550) | no (0)
O=c1[nH]oc2c1CCNC2 | Beta-2 adrenergic receptor (Homo sapiens) (UniProt P07550) | no (0)
O=C(O)C(F)(F)C(F)(F)C(F)(F)C(F)(F)C(F)(F)F | Beta-2 adrenergic receptor (Homo sapiens) (UniProt P07550) | no (0)
CCOP(=S)(OCC)SCSCC | Beta-2 adrenergic receptor (Homo sapiens) (UniProt P07550) | no (0)
BrCC(Br)C1CCC(Br)C(Br)C1 (centres undefined) | Beta-2 adrenergic receptor (Homo sapiens) (UniProt P07550) | no (0)
ClCc1ccccc1Cl | Beta-2 adrenergic receptor (Homo sapiens) (UniProt P07550) | no (0)
CCCN(CCC)c1c([N+](=O)[O-])cc(S(C)(=O)=O)cc1[N+](=O)[O-] | Beta-2 adrenergic receptor (Homo sapiens) (UniProt P07550) | no (0)
O=C(N[C@@H]1N=C(c2ccccc2F)c2cccc3c2N(CC3)C1=O)c1cc2ccccc2[nH]1 | Beta-2 adrenergic receptor (Homo sapiens) (UniProt P07550) | no (0)
CC(C)N1C(=O)N(c2ccccc2)CSC1=NC(C)(C)C | Beta-2 adrenergic receptor (Homo sapiens) (UniProt P07550) | no (0)
CN[C@@H](C)[C@H](O)c1ccccc1 | Beta-2 adrenergic receptor (Homo sapiens) (UniProt P07550) | no (0)
ClC(Br)Br | Beta-2 adrenergic receptor (Homo sapiens) (UniProt P07550) | no (0)
CC(Cl)CN(C)C (centres undefined) | Beta-2 adrenergic receptor (Homo sapiens) (UniProt P07550) | no (0)
C[C@]12CC[C@H]3[C@@H](CCC4=CC(=O)CC[C@@H]43)[C@@H]1CC[C@@H]2OC(=O)CCc1ccco1 | Beta-2 adrenergic receptor (Homo sapiens) (UniProt P07550) | yes (1)
CN1C(=S)CN=C(c2ccccc2)c2cc(Cl)ccc21 | Beta-2 adrenergic receptor (Homo sapiens) (UniProt P07550) | no (0)
C1=CCC=C1 | Beta-2 adrenergic receptor (Homo sapiens) (UniProt P07550) | no (0)
ClCCCCBr | Beta-2 adrenergic receptor (Homo sapiens) (UniProt P07550) | no (0)
CCCCc1ccccc1 | Beta-2 adrenergic receptor (Homo sapiens) (UniProt P07550) | no (0)
O=C(N/N=C/c1ccc([N+](=O)[O-])o1)c1cc([N+](=O)[O-])cc([N+](=O)[O-])c1O | Beta-2 adrenergic receptor (Homo sapiens) (UniProt P07550) | no (0)
[F][Sn]([c]1ccccc1)([c]1ccccc1)[c]1ccccc1 | Beta-2 adrenergic receptor (Homo sapiens) (UniProt P07550) | no (0)
CC(=O)Nc1ccc2c(c1)Cc1ccccc1-2 | Beta-2 adrenergic receptor (Homo sapiens) (UniProt P07550) | no (0)
COc1ccc(C(=O)N2CCCC2=O)cc1 | Beta-2 adrenergic receptor (Homo sapiens) (UniProt P07550) | no (0)
CCCCS(=O)(=O)Cl | Beta-2 adrenergic receptor (Homo sapiens) (UniProt P07550) | no (0)
CCN(CCO)CCn1c(Cc2ccccc2)nc2c1c(=O)n(C)c(=O)n2C | Beta-2 adrenergic receptor (Homo sapiens) (UniProt P07550) | no (0)
[Cl-].[Cl-].[Cl-].[Yb+3] | Beta-2 adrenergic receptor (Homo sapiens) (UniProt P07550) | no (0)
NC1CCC(CC2CCC(N)CC2)CC1 (centres undefined) | Beta-2 adrenergic receptor (Homo sapiens) (UniProt P07550) | no (0)
O=c1ssc(Cl)c1Cl | Beta-2 adrenergic receptor (Homo sapiens) (UniProt P07550) | no (0)
Fc1ccc(Oc2ccnc3cc(Cl)cc(Cl)c23)cc1 | Beta-2 adrenergic receptor (Homo sapiens) (UniProt P07550) | no (0)
CCCCN(CCCC)C(=S)[S-].CCCCN(CCCC)C(=S)[S-].[Ni+2] | Beta-2 adrenergic receptor (Homo sapiens) (UniProt P07550) | no (0)
Cc1nc(N(C)C)nc(OC(=O)N(C)C)c1C | Beta-2 adrenergic receptor (Homo sapiens) (UniProt P07550) | no (0)
CCOP(=S)(OCC)SCCS(=O)(=O)CC | Beta-2 adrenergic receptor (Homo sapiens) (UniProt P07550) | no (0)
NC(=O)C(Cl)Cl | Beta-2 adrenergic receptor (Homo sapiens) (UniProt P07550) | no (0)
C[C@H]1[C@H](c2ccc(Cl)cc2)SC(=O)N1C(=O)NC1CCCCC1 | Beta-2 adrenergic receptor (Homo sapiens) (UniProt P07550) | no (0)
COc1nn(C(=O)NS(=O)(=O)c2ccccc2OC(F)(F)F)c(=O)n1C | Beta-2 adrenergic receptor (Homo sapiens) (UniProt P07550) | no (0)
C=CCC1([C@H](C)CCC)C(=O)NC(=O)NC1=O | Beta-2 adrenergic receptor (Homo sapiens) (UniProt P07550) | no (0)
CC(C)[N+](=O)[O-] | Beta-2 adrenergic receptor (Homo sapiens) (UniProt P07550) | no (0)
COc1ccc2[nH]cc(CCN(C(C)C)C(C)C)c2c1 | Beta-2 adrenergic receptor (Homo sapiens) (UniProt P07550) | no (0)
CC(C)N(C(=O)SC/C(Cl)=C/Cl)C(C)C | Beta-2 adrenergic receptor (Homo sapiens) (UniProt P07550) | no (0)
COc1ccc2c(c1OC)C(=O)O[C@H]2[C@@H]1c2cc3c(cc2CCN1C)OCO3 | Beta-2 adrenergic receptor (Homo sapiens) (UniProt P07550) | no (0)
O=C(NC(=O)c1c(F)cccc1F)Nc1cc(Cl)c(Oc2ncc(C(F)(F)F)cc2Cl)c(Cl)c1 | Beta-2 adrenergic receptor (Homo sapiens) (UniProt P07550) | no (0)
C[C@H](CN1CCOCC1)C(C(=O)N1CCCC1)(c1ccccc1)c1ccccc1 | Beta-2 adrenergic receptor (Homo sapiens) (UniProt P07550) | no (0)
CC(C(O)c1ccccc1)N(C)C/C=C/c1ccccc1 (centres undefined) | Beta-2 adrenergic receptor (Homo sapiens) (UniProt P07550) | no (0)
CCNS(=O)(=O)C(F)(F)C(F)(F)C(F)(F)C(F)(F)C(F)(F)C(F)(F)C(F)(F)C(F)(F)F | Beta-2 adrenergic receptor (Homo sapiens) (UniProt P07550) | no (0)
CC[C@H](C)[C@H]1O[C@]2(C=C[C@@H]1C)C[C@@H]1C[C@@H](C/C=C(\C)[C@@H](O[C@H]3C[C@H](OC)[C@@H](O[C@H]4C[C@H](OC)[C@@H](O)[C@H](C)O4)[C@H](C)O3)[C@@H](C)/C=C/C=C3\CO[C@@H]4[C@H](O)C(C)=C[C@@H](C(=O)O1)[C@]34O)O2 | Beta-2 adrenergic receptor (Homo sapiens) (UniProt P07550) | no (0)
O=C(CBr)Nc1ccc(Cl)cc1C(=O)c1ccccc1F | Beta-2 adrenergic receptor (Homo sapiens) (UniProt P07550) | no (0)
